# assay_protocol: Aqueous solubility at pH 5 after 18 hrs by UV kinetic solubility method
# Type: physicochemical
# assay_context: aqueous medium
measured_endpoint: solubility kinetic at 18 h (µg/mL)

Cc1cc2nc(NCCCO)n(CC(=O)c3cc(C(C)(C)C)c(O)c(C(C)(C)C)c3)c2cc1C : 42

* * *

# assay_protocol: Metabolic stability in mouse liver microsomes assessed as compound remaining at 10 uM after 1 hr by LC/MS/MS analysis
# Format: ADME, Microsome
# assay_context: read-out: Stability
measured_endpoint: remaining at 1 h, 10 µM

Cc1cc2nc(NCCCO)n(CC(=O)c3cc(C(C)(C)C)c(O)c(C(C)(C)C)c3)c2cc1C : 19%
